- Protocol text: AUCextrap in male ICR-CD1 mouse liver at 80 mg/kg, po
- Assay type: ADME, organism-based
Property: AUC

Qu. Please report the measured AUC for O=c1c2cc(F)c(Oc3ccc(OC(F)(F)F)cc3)cc2[nH]c2cc(Cl)cc(F)c12
Ans. 3.14%

====

- Protocol text: Cytotoxicity against Macaca mulatta hepatocytes assessed as cell viability measured after 48 hrs by MTT assay
- Format: toxicity, cell-based, Hepatocyte
- Condition set: rhesus monkey
Kindly supply the reported CC50 at 48 h values for the records listed here.

{"Smiles text": "O=c1c2ccc(Oc3cccc(C(F)(F)F)c3)cc2[nH]c2cc(F)c(Cl)cc12", "Val": "> 20 µM"}

Qu. Provide measured CC50 at 48 h value, entry: O=c1c2ccc(Oc3cccc(OC(F)(F)F)c3)cc2[nH]c2cc(F)c(Cl)cc12
Ans. > 20 µM
